Measured pEC50 values are reported for all entries that follow.
target_or_test_system: human GST-AMPK α2β2γ1 (Homo sapiens, UniProt O43741+P54646)
Construct: triply transfected with full-length AMPK α1 or α2 (NH2-terminal GST fusion, pDEST27 vector); full-length AMPK α1 or α2 (NH2-terminal GST fusion, pDEST27 vector), β1 or β2 (COOH-terminal FLAG fusion, pcDNA3.1 vector); FLAG (C)
Sequence (P54646 whole entry, the tested form may be a part): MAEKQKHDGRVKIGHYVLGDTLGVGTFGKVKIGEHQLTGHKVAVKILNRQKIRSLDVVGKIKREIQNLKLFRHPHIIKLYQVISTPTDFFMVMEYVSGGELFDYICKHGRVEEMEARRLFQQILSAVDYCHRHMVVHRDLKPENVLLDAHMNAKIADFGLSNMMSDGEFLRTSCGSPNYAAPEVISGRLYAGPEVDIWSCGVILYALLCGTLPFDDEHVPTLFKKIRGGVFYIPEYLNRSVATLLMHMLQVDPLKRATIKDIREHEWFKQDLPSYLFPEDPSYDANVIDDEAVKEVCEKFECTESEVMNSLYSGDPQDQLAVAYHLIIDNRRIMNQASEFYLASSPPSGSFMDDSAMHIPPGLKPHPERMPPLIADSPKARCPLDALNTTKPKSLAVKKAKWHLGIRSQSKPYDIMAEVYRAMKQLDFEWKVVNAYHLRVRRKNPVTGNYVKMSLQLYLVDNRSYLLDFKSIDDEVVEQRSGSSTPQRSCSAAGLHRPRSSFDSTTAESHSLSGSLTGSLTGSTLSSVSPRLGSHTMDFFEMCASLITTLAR
Sequence (O43741 whole entry, the tested form may be a part): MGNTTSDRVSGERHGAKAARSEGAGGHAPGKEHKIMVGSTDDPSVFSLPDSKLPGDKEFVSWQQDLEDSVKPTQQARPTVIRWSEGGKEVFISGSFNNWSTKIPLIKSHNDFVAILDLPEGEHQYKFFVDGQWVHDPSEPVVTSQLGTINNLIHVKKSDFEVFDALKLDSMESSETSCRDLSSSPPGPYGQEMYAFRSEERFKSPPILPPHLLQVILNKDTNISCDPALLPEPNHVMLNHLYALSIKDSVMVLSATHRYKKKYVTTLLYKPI
Sequence (P54619 whole entry partner, the tested form may be a part): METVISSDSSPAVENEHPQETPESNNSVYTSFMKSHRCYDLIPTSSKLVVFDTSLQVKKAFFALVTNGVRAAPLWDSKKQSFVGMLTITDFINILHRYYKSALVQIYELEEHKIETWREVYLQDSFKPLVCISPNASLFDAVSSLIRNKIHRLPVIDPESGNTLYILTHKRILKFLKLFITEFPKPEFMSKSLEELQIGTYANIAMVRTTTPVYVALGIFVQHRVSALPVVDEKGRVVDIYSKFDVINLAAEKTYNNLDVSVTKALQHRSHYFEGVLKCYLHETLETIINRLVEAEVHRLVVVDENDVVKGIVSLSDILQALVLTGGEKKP
assay_notes: Radiolabel SAMS kinase assay, GST-AMPK from HEK293T/17 cells immobilised on glutathione-Sepharose
measurement_conditions: immobilised α2β2γ1, 0–30 µM activator
Please treat pEC50 as minus the base-10 logarithm of the molar concentration.

Record excerpt, results attached:
[
  {
    "compound": "O[C@@H]1CO[C@H]2[C@@H]1OC[C@H]2Oc1nc2nc(-c3ccc(-c4ccccc4)cc3)c(Cl)cc2[nH]1 [MK-8722, reference compound]",
    "pEC50": 5.25
  },
  {
    "compound": "CC(=O)NC1CC=C(c2ccc(-c3nc4nc(Oc5ccc(C)c(C(=O)O)c5)[nH]c4cc3Cl)cc2)CC1 (stereo not drawn)",
    "pEC50": 6.33
  }
]

Now consider the entry below.
Item CN(C)C(=O)C1(O)CCC(Oc2nc3nc(-c4ccc(C5=CCC(C(=O)O)CC5)cc4)c(Cl)cc3[nH]2)CC1 (stereo not drawn) : provide pEC50 6.48
